- target.entity: human alpha 7-wt nAChR (Homo sapiens, UniProt P36544)
- Construct: expressed in transfected cells
- Sequence (P36544 23-502): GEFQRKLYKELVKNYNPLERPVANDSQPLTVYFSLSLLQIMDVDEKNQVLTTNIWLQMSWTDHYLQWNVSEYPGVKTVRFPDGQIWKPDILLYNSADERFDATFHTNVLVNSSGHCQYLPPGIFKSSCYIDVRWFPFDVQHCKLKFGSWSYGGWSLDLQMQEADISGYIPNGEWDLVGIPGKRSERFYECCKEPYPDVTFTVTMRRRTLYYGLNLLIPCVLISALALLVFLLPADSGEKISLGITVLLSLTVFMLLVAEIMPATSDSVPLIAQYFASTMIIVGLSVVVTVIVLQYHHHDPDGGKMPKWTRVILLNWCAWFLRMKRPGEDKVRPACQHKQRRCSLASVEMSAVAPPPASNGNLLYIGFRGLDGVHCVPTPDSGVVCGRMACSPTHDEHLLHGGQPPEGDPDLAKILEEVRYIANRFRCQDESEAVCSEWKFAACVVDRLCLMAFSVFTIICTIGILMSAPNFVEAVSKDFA
- measurement.notes: Ca2+ flux imaging (FDSS) (protocol B)
- Type: cell-based
- applied.conditions: Ca2+ assay as described in D.1; read-out: pEC50 (converted)
Catalogue of molecules with associated EC50
measurement.kind: EC50 (nM)

> print(dat)
                         structure.notation  measurement.kind  recorded.measurement
1  Cc1cc(-c2c(F)cc(N3CCO[C@@H](C(F)(F)F)C3)cc2CNC(=O)c2conc2C)cc(C)n1              EC50                  16.6
2  Cc1cc(-c2ccc(N3C[C@@H](C)O[C@@H](C)C3)cc2CNC(=O)CC2CC2)cc(C)n1              EC50                  40.7
3  Cc1cc(-c2c(F)cc(N3C[C@@H](C)O[C@@H](C)C3)cc2CNC(=O)CC2CC2)cc(C)n1              EC50                  11.2
4  Cc1cc(-c2ccc(N3C[C@@H](C)O[C@@H](C)C3)c(F)c2CNC(=O)C(C)C)cc(C)n1              EC50                   575

----------
- target.entity: human alpha 7-wt nAChR (Homo sapiens, UniProt P36544)
- Construct: expressed in transfected cells
- measurement.notes: Ca2+ flux imaging (FDSS) (protocol B)
- Assay type: cell-based
- applied.conditions: read-out: % Efficacy
- Method: Example D.1 : Ca^2+ flux imaging (FDSS) (protocol B) […] PAM activity was detected in real time by applying the compounds to be tested to the loaded cells along with an alpha 7 nicotinic receptor agonist during constant monitoring of cellular fluorescence in a FDSS. […] A control response to choline was calculated on each plate from the difference in peak in fluorescence in wells receiving either choline or assay buffer alone. […]
Catalogue of molecules with associated Emax
measurement.kind: Emax

> print(dat)
                                    molecule  recorded.measurement
 1  Cc1cc(-c2c(F)cc(N3C[C@@H](C)O[C@@H](C)C3)cc2CNC(=O)C2CC2)cc(C)n1                  381%
 2  Cc1cc(-c2ccc(N3C[C@@H](C)O[C@@H](C)C3)cc2CNC(=O)C(C)C2CC2)cc(C)n1 (relative stereo)                  353%
 3  Cc1cc(-c2c(F)cc(N3CCO[C@H](C(F)(F)F)C3)cc2CNC(=O)CC2CCC2)cc(C)n1                  559%
 4  Cc1cc(-c2c(F)cc(N3CCCC(C(F)(F)F)C3)cc2CNC(=O)C(C)C2CC2)cc(C)n1 (stereo not shown)                  736%
 5  Cc1cc(-c2ccc(N3CCOCC3)cc2CNC(=O)c2ccc(F)cc2C)cc(C)n1                  419%
 6  Cc1cc(-c2ccc(N3CCO[C@@H](C(F)(F)F)C3)c(F)c2CNC(=O)C2CC2)cc(C)n1                  878%
 7  Cc1cc(-c2c(F)cc(N3C[C@@H](C)O[C@@H](C)C3)cc2CNC(=O)CC(C)C)cc(C)n1                  906%
 8  Cc1cc(-c2ccc(N3CCOCC3)cc2CNC(=O)c2conc2C)cc(C)n1                  202%
 9  Cc1cc(-c2c(Cl)cc(N3C[C@@H](C)O[C@@H](C)C3)cc2CNC(=O)C(C)C)cc(C)n1                  435%
10  Cc1cc(-c2cc(F)c(N3C[C@@H](C)O[C@@H](C)C3)cc2CNC(=O)C(C)C)cc(C)n1                  329%
11  Cc1cc(-c2ccc(C3C[C@@H](C)O[C@@H](C)C3)c(F)c2CNC(=O)CC(C)C)cc(C)n1 (relative stereo)                  890%
12  Cc1cc(-c2c(F)cc(N3CCOC(C)C3)cc2CNC(=O)CC2CC2)cc(C)n1 (stereo not shown)                  415%
13  Cc1cc(-c2c(F)cc(N3CCOC(C)C3)cc2CNC(=O)c2cc(C)on2)cc(C)n1 (stereo not shown)                  443%
14  Cc1cc(-c2cc(F)c(N3C[C@@H](C)O[C@@H](C)C3)cc2CNC(=O)C2CC2)cc(C)n1                  352%
15  Cc1cc(-c2c(F)cc(N3CCCC(C(F)(F)F)C3)cc2CNC(=O)C2CC2)cc(C)n1 (stereo not shown)                  330%
16  Cc1cc(-c2ccc(N3CCO[C@H](C(F)(F)F)C3)c(F)c2CNC(=O)c2conc2C)cc(C)n1                  649%
17  Cc1cc(-c2c(F)cc(N3CCO[C@H](C(F)(F)F)C3)cc2CNC(=O)C(C)C)cc(C)n1                  266%
18  Cc1cc(-c2c(F)cc(N3CCO[C@@H](C(F)(F)F)C3)cc2CNC(=O)C(C)C)cc(C)n1                  292%
19  Cc1cc(-c2ccc(N3C[C@@H](C)O[C@@H](C)C3)cc2CNC(=O)CC2CC2)ccn1                  915%
20  Cc1cc(-c2ccc(N3CC4CCC(C3)O4)cc2CNC(=O)C2CC2)cc(C)n1                  269%
21  Cc1cc(-c2c(F)cc(N3CCO[C@H](C(F)(F)F)C3)cc2CNC(=O)CC2CC2)cc(C)n1                  432%
22  Cc1cc(-c2c(F)cc(N3CCOC(C)C3)cc2CNC(=O)CC2CCC2)cc(C)n1 (stereo not shown)                  485%
23  Cc1cc(-c2ccc(N3C[C@H](C(F)(F)F)C[C@H](C(F)(F)F)C3)cc2CNC(=O)c2ccc(F)cc2C)cc(C)n1                  466%
24  Cc1cc(-c2cc(F)c(N3C[C@@H](C)O[C@@H](C)C3)cc2CNC(=O)CC2CC2)cc(C)n1                  451%
25  Cc1cc(-c2ccc(N3CCCC(C(F)(F)F)C3)cc2CNC(=O)c2cc(C)on2)cc(C)n1 (stereo not shown)                  405%
26  Cc1cc(-c2ccc(N3C[C@H](C)C[C@H](C)C3)cc2CNC(=O)c2cc(C)on2)cc(C)n1                  136%
27  Cc1cc(-c2ccc(N3C[C@H](C(F)(F)F)C[C@H](C(F)(F)F)C3)cc2CNC(=O)c2conc2C)cc(C)n1                  266%
28  Cc1cc(-c2ccc(N3CCCC(C(F)(F)F)C3)cc2CNC(=O)c2ccc(F)cc2C)cc(C)n1 (stereo not shown)                  278%
29  Cc1cc(-c2c(F)cc(N3CCOC(C)C3)cc2CNC(=O)CC(C)C)cc(C)n1 (stereo not shown)                  374%
30  Cc1cc(-c2ccc(N3CCCC(C(F)(F)F)C3)cc2CNC(=O)CC2CC2)cc(C)n1 (stereo not shown)                  389%
31  Cc1cc(-c2c(F)cc(N3C[C@@H](C)O[C@@H](C)C3)cc2CNC(=O)CC(C)(C)C)cc(C)n1                  686%
